assay: chemical genetic growth profiling, strain panel (AID 1159580);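 note: tested at 20 µM; growth read once vehicle control cultures reached saturation at 30 °C; 1 = growth at the plate median or of vehicle wells; lower values mean less growth of the strain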; settings: S. cerevisiae deletion strains, growth OD, locus YHR079C, strain IRE1, active compounds read low
Hit rate of the full screen: of about 5,500 compounds, about 2,000 (36%) were called active. Roughly 18% stayed inconclusive and do not appear here. The list shows a part of the results.
The following molecules are shown together with reported normalized growth values.
Lab note: jot down the number only; don't add units.

Sample records with normalized growth:
{"columns": ["MOLECULE", "normalized growth"],
 "data": [
  ["CC1(C)O[C@@H]2CC3C4CCC5=CC(=O)CCC5(C)C4(F)C(O)CC3(C)[C@]2(C(=O)CCl)O1 (stereo partly specified)", 1],
  ["O=[N+]([O-])c1ccc2oc(C(O)c3ccc(-c4ccccc4)cc3)cc2c1 (stereo unspecified)", 0.896],
  ["COc1c2ccoc2c(OC)c2oc(=O)ccc12", 0.989],
  ["Nc1ccn(C2O[C@H](CO)[C@@H](O)[C@@H]2O)c(=O)n1 (stereo partly specified)", 1.02],
  ["S=c1[nH]nc(Nc2ccc(I)cc2)s1", 0.362],
  ["CC(=O)OC1CCC2(C)C(=CC=C3C2CCC2(C)C3CCC2C(C)/C=C/C(C)C(C)C)C1(C)C (stereo unspecified)", 1.03],
  ["OC(CN1CCN(c2nc3ccc(Cl)cc3s2)CC1)Cn1ccc2ccccc21 (stereo unspecified)", 0.955],
  ["Cc1c(S(=O)(=O)O)oc2c1C(=O)C(=O)c1c-2ccc2c1CCCC2(C)C", 0.959]
]}

Challenge: Please report normalized growth for the following molecule: Cc1cccc2c3c(ccc12)C1=C(C(=O)C3=O)C(C)CO1 (stereo unspecified)
Response given: 0.174

Challenge: Please report normalized growth for the following molecule: CC(=O)ON=C1c2cc([N+](=O)[O-])ccc2-c2ccc([N+](=O)[O-])cc21
Response given: 0.825

Challenge: Please report normalized growth for the following molecule: COc1c(OC)c2occc2c2oc(=O)ccc12
Response given: 0.944

----------
The following molecules are shown together with reported normalized growth values.
test: chemical genetic growth profiling, strain panel (AID 1159580);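 note: tested at 20 µM; growth read once vehicle control cultures reached saturation at 30 °C; 1 = growth at the plate median or of vehicle wells; lower values mean less growth of the strain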; conditions: S. cerevisiae deletion strains, growth OD, locus YJL164C, strain tpk1, active compounds read low
Screen size: about 5,500 compounds; about 2,000 (36%) were called active. About 18% were inconclusive and are not listed. The list shows a part of the results.
Lab note: jot down the number only; don't add units.

Sample records with normalized growth:
{"columns": ["MOLECULE", "normalized growth"],
 "data": [
  ["O=c1cc[nH]c(=S)[nH]1", 0.983],
  ["CC[C@H](C)C(=O)O[C@H]1CCC=C2C=C[C@H](C)C(CCC3C[C@@H](O)CC(=O)O3)[C@H]21 (stereo not given in full)", 1.01],
  ["CC(=O)N[C@@H](CS)C(=O)O", 1],
  ["COC(=O)C(O)c1ccccc1 (stereo not given)", 1.03],
  ["O=C1[C@H](CCC(O)c2ccc(F)cc2)[C@@H](c2ccc(O)cc2)N1c1ccc(F)cc1 (stereo not given in full)", 0.981]
]}

Challenge: Please report normalized growth for the following molecule: C=C1CCC2C(CC2(C)C)C(=C)CC/C1=N\O (stereo not given)
Response given: 1

Challenge: Please report normalized growth for the following molecule: CC(C(=O)O)c1ccc(C(=O)c2cccs2)cc1 (stereo not given)
Response given: 1.03

All values here come from PubChem BioAssay AID1159580.
